koff values for the binders below.
- Test target: T1, Human Factor P (human, UniProt P27918 29-469)
- T1 construct: Bought protein (Complement Technology cat# A139) in SET and Biacore; Factor P of human serum in the functional assays; also called FP; human FP
- T1 sequence (P27918 29-469 limits assumed): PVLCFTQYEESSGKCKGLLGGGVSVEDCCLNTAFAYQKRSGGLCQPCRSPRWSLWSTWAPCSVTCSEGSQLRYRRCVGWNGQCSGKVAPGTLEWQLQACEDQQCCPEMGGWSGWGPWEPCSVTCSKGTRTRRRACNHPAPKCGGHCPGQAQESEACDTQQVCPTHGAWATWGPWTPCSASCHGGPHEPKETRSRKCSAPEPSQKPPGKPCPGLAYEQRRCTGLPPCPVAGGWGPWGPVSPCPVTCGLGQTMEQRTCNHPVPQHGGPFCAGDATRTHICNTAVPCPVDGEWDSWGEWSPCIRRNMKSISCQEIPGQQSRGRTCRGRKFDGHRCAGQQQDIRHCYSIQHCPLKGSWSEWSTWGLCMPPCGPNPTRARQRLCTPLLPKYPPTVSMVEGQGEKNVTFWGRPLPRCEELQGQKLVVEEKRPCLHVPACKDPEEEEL
- Protocol description: Biacore SPR, captured Factor P
Field: numeric (s⁻¹). Do not append units.

Binder	Unit tag	koff
NVS962-G (Fab, V domains shown, NVS962 with heavy chain N30 replaced with glycine) VH: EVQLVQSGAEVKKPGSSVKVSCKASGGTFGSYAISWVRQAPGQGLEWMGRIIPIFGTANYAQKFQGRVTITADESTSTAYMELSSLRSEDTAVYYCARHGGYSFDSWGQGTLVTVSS VL: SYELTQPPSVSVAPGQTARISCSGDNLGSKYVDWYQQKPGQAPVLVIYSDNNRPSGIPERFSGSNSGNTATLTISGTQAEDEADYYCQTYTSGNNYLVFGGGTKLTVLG	s⁻¹	0.00044

Ask | Report koff for NVS962 (Fab, V domains shown, also called Fab NVS962) VH: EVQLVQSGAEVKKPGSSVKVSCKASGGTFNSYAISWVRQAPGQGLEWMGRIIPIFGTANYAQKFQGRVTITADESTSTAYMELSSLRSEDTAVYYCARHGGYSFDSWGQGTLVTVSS VL: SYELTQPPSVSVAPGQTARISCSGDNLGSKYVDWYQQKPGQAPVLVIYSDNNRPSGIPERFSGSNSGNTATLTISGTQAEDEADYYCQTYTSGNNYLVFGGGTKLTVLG please.
Reply | 0.000125

Ask | Now this one: NVS965-S (Fab, V domains shown, NVS965 with heavy chain N30 replaced with serine) VH: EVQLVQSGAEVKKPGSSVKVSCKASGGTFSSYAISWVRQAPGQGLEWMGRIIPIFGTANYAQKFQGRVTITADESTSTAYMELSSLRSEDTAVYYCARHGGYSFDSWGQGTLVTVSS VL: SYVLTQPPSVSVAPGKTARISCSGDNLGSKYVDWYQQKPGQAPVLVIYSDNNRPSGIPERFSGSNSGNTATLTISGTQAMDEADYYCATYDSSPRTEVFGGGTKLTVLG
Reply | 9.9e-05
